From: patent US20230346670A1

System: A. actinomycetemcomitans virulence genes
Experiment: Virulence gene expression in multi-species biofilm (SYBR RT-qPCR)
Assay type: cell-based
Conditions: substrate 1 M; relative to control = 1, 2^-ΔΔCt; n = 3
Marks after values point to notes of the source that are not given here.
MEASURED ENDPOINT: fold change in emaA expression, geometric mean (95% C.I.)

- COMPOUND: "CC(=O)N[C@H]1C(O)O[C@H](CO)[C@@H](O)[C@@H]1O (stereo partly shown)"
  TEST TARGET: "A. actinomycetemcomitans virulence genes"
  TEST RESULT: "0.29 (0.07-1.20)* fold"
- COMPOUND: "OC[C@H]1O[C@H](O[C@H]2O[C@H](CO)[C@@H](O)[C@H](O)[C@H]2O)[C@H](O)[C@@H](O)[C@@H]1O [D-trehalose, D-(+)-trehalose]"
  TEST TARGET: "A. actinomycetemcomitans virulence genes"
  TEST RESULT: "0.11 (0.04-0.32)^∗ fold"
- COMPOUND: "OC[C@H]1O[C@H](OC[C@H]2O[C@H](O[C@]3(CO)O[C@H](CO)[C@@H](O)[C@@H]3O)[C@H](O)[C@@H](O)[C@@H]2O)[C@H](O)[C@@H](O)[C@H]1O [D-raffinose, D-(+)-raffinose]"
  TEST TARGET: "A. actinomycetemcomitans virulence genes"
  TEST RESULT: "0.09 (0.03-0.29)^∗ fold"
- COMPOUND: "OC[C@H]1O[C@@H](O[C@H]2[C@H](O)[C@@H](O)[C@@H](O)O[C@@H]2CO)[C@H](O)[C@@H](O)[C@H]1O"
  TEST TARGET: "A. actinomycetemcomitans virulence genes"
  TEST RESULT: "0.08 (0.06-0.11)^∗ fold"

###

Test system: F. nucleatum virulence genes
Assay: Virulence gene expression in multi-species biofilm (SYBR RT-qPCR)
Assay type: cell-based
Details: substrate 1% (w/v); relative to control = 1, 2^-ΔΔCt; n = 3
Listed compounds paired with reported fold change in EF-G expression, geometric mean (95% C.I.)
MEASURED ENDPOINT: fold change in EF-G expression, geometric mean (95% C.I.)

- COMPOUND: "OC[C@H]1O[C@H](OC[C@H]2O[C@H](O[C@]3(CO)O[C@H](CO)[C@@H](O)[C@@H]3O)[C@H](O)[C@@H](O)[C@@H]2O)[C@H](O)[C@@H](O)[C@H]1O [D-raffinose, D-(+)-raffinose]"
  TEST RESULT: "0.12 (0.04-0.33)^∗ fold"
- COMPOUND: "CC(=O)N[C@H]1C(O)O[C@H](CO)[C@@H](O)[C@@H]1O (stereo partly drawn) [NADG, N-acetyl-D-glucosamine]"
  TEST RESULT: "0.10 (0.02-0.45)^∗ fold"
- COMPOUND: "OC[C@H]1O[C@@H](O[C@H]2[C@H](O)[C@@H](O)[C@@H](O)O[C@@H]2CO)[C@H](O)[C@@H](O)[C@H]1O [D-lactose, α-D-lactose]"
  TEST RESULT: "0.13 (0.03-0.51)^∗ fold"
- COMPOUND: "OC[C@H]1O[C@H](O[C@H]2O[C@H](CO)[C@@H](O)[C@H](O)[C@H]2O)[C@H](O)[C@@H](O)[C@@H]1O [D-trehalose, D-(+)-trehalose]"
  TEST RESULT: "0.12 (0.03-0.55)^∗ fold"
